quantity_name: melting point

Example results:
compound	melting point
Cc1cc2cc(OCCCCBr)ccc2[nH]1	77 to 79 °C
Oc1nc2ncnn2c(O)c1-c1c(F)cc(F)cc1F	200 to 201 °C
COC(=O)Cc1ccc(CN2CCN(C(c3ccccc3)c3ccccn3)CC2)cc1 (stereo not given)	122 to 123 °C
Cn1ncc(C(=O)N2CCC2)c1C(=O)Nc1ccn2nc(N3CCOCC3)nc2c1	232 to 234 °C

--- query ---
Which value of melting point has been reported for COc1ccccc1NC(=O)Nc1nc(Oc2ccc3ccccc3c2)nc(N2Cc3ccccc3CC2C(=O)O)n1 (stereo not given) in the records? 230 to 235 °C

----------
Assignment: determine reported melting point for the given molecules.

Example results:
molecule	melting point
CC(=O)Oc1ccccc1C(=O)Oc1cccc(CO)c1	77 to 79 °C
CS(=O)(=O)O[C@H]1C[C@@H](C(=O)OCc2ccccc2)N(S(C)(=O)=O)C1	91 to 92 °C

Quick one: give me melting point for each item below, same order please.
1. CON1CCC2(CC1)OC(=O)C(c1cc(C)ccc1C)=C2O
2. CNCCOc1ccc(C2=C(c3ccccc3)CCCc3cc(OC4CCCCO4)ccc32)cc1 (stereo not drawn)
3. CCCCOc1c(NCCCBr)c(=O)c1=O

1: 205 to 208 °C; 2: 133 to 137 °C; 3: 56 to 57 °C

----------
Assignment: determine reported melting point for the given compounds.

compound	melting point
COC(=O)c1cncn1C1c2ccccc2C(OC)(OC)C1(C)C (stereo not drawn)	140 to 141 °C
CN1CCC[C@@H]1Cc1cn(Cc2ccccc2)c2ccc(CS(=O)(=O)N(C)C(c3ccccc3)c3ccccc3)cc12	117 to 120 °C
CC(C)(C)C(=O)OCOC(=O)c1[nH]c2ccccc2c1Nc1ccncc1	223 to 224 °C
CCC1(CC)CN(C(C)(C)C)C(=O)C(CC)(CC)N1OC(C)(C)C#N	45 to 52 °C
O=C1c2ccccc2C(=O)N1CCNCCCO	94 to 95 °C
CNCc1cc2cc(Nc3nc(N)n(C(=O)c4cccc(C)c4)n3)ccc2o1	128 to 131 °C
Cn1cc(C(=O)c2ccccn2)cc1C(=O)c1ccc(Cl)cc1	138 to 139 °C
COC[C@@H]1[C@@H](c2ccc(Cl)c(Cl)c2)C[C@@H]2CC[C@H]1N2C	73 to 76 °C
CC(=O)CC(=O)C=Cc1ccc2cc[nH]c2c1	138 to 142 °C
Fc1cc(F)c(-c2c(F)nc3nncnc3c2F)c(F)c1	160 to 161 °C

Quick one: give me melting point for each item below, same order please.
1. Nc1nc(COc2ccc(Cl)c(Cl)c2)nc2nccnc12
2. CC(Cc1ccc(O)cn1)NC1CC1 (stereo not drawn)

1: 261 to 263 °C; 2: 161 °C

Quick one: give me melting point for each item below, same order please.
1. O=C(O)c1cc(Br)cc2c1NCCS2
2. CC(C#N)(CNC(=O)c1n[nH]cc1NC(=O)c1ccccn1)Cc1ccccc1 (stereo not drawn)
3. O=S(=O)(c1cccs1)N(CCN1CCOCC1)c1cccc2cc(-c3nccs3)[nH]c12
4. Cc1ccc(C=CCC(C(=O)C=Cc2ccc(Cl)cc2)c2ccccc2)cc1 (stereo not drawn)
5. Nc1nc2ccccc2c(=O)[nH]1
6. COC(=O)C(CC(C)C)NC(=O)C(CC(C)C)NC(=O)OCc1ccccc1 (stereo not drawn)

1: 205 to 206 °C; 2: 196 to 197 °C; 3: 192 to 193 °C; 4: 114 to 118 °C; 5: > 300 °C; 6: 80 to 82 °C

Where these numbers come from: a melting point compilation (Tetko et al.; mined from patent text by program, amines drawn as free bases though some values may be those of a salt)
